- System: mock-infected MT-4 cells
- methodNotes: Cytotoxicity in mock-infected MT-4 cells (MTT)
- Format: cell-based
- conditionContext: OD 540 nm, read-out: CC50 (50% cytotoxic concentration)
Readings of CC50 for the listed compounds
parameterMeasured: CC50 (µM)

[[record]]
smilesnotation = "Cc1cc(C)c(S(=O)(=O)c2cn(C)c(=O)c(Nc3ccc(C#N)cc3)n2)c(C)c1"
resultnumber = 99.4

[[record]]
smilesnotation = "Cc1ccccc1Oc1cn(C)c(=O)c(Nc2ccc(C#N)cc2)n1"
resultnumber = 100

[[record]]
smilesnotation = "Cc1ccc(Sc2cn(C)c(=O)c(Nc3ccc(C#N)cc3)n2)c(C)c1"
resultnumber = 99.8

[[record]]
smilesnotation = "Cc1cc(C)c(Sc2cn(C)c(=O)c(Nc3ccc(C#N)cc3)n2)c(C)c1"
resultnumber = 99.7

[[record]]
smilesnotation = "Cc1ccc(Oc2cn(C)c(=O)c(Nc3ccc(C#N)cc3)n2)c(C)c1"
resultnumber = 95.1


* * *

- Tested on: HIV-1
- methodNotes: microbe, parasite or virus in culture
- Format: cell-based
- conditionContext: Human immunodeficiency virus 1, MT4; HIV-infected MT-4 cells, MTT, OD 540 nm; read-out: IC50 (50% inhibitory concentration, dose achieving 50% protection)
parameterMeasured: IC50 (µM)

[[record]]
compound = "Cc1cc(C)c([S+]([O-])c2nc(Nc3ccc(C#N)cc3)c(=O)n(C)c2C)c(C)c1 (stereo not shown) [Compound 18]"
measuredtarget = "HIV-1"
resultnumber = 0.004

[[record]]
compound = "Cc1ccc(Oc2cn(C)c(=O)c(Nc3ccc(Cl)cc3)n2)c(C)c1 [Compound 22]"
measuredtarget = "HIV-1"
resultnumber = 0.02

[[record]]
compound = "Cc1cc(C#N)cc(C)c1Oc1nc(Nc2ccc(C#N)cc2)c(=O)n(C)c1C [Compound 1]"
measuredtarget = "HIV-1"
resultnumber = 0.0063

[[record]]
compound = "Cc1ccc(Oc2cn(C)c(=O)c(Nc3ccc(C(F)(F)F)cc3)n2)c(C)c1 [Compound 11]"
measuredtarget = "HIV-1"
resultnumber = 0.501


* * *

- Test system: HIV-1
- methodNotes: microbe, parasite or virus in culture
- Format: cell-based
- conditionContext: HIV-infected MT-4 cells, MTT, OD 540 nm; read-out: IC50 (50% inhibitory concentration, dose achieving 50% protection)
pIC50: −log10 of the molar value.
parameterMeasured: pIC50

[[record]]
compound = "Cc1cc(C)c(S(=O)(=O)c2cn(C)c(=O)c(Nc3ccc(C#N)cc3)n2)c(C)c1 [Compound 15]"
resultnumber = 8.10

[[record]]
compound = "Cc1ccc(Oc2cn(C)c(=O)c(Nc3ccc(C#N)cc3)n2)c(C)c1 [Compound 3]"
resultnumber = 9.22

[[record]]
compound = "Cc1ccc(Sc2cn(C)c(=O)c(Nc3ccc(C#N)cc3)n2)c(C)c1 [Compound 21]"
resultnumber = 8.30

[[record]]
compound = "Cc1cc(C)c(Sc2cn(C)c(=O)c(Nc3ccc(C#N)cc3)n2)c(C)c1 [Compound 13]"
resultnumber = 7.80

[[record]]
compound = "Cc1ccccc1Oc1cn(C)c(=O)c(Nc2ccc(C#N)cc2)n1 [Compound 2]"
resultnumber = 8.40


* * *

Readings of IC50 for the listed molecules
- Test system: HIV-1
- methodNotes: microbe, parasite or virus in culture
- Assay type: cell-based
- conditionContext: Human immunodeficiency virus 1, MT4; HIV-infected MT-4 cells, MTT, OD 540 nm; read-out: IC50 (50% inhibitory concentration, dose achieving 50% protection)
parameterMeasured: IC50 (nM)

[[record]]
smilesnotation = "Cc1ccccc1Sc1nc(Nc2ccc(C#N)cc2)c(=O)n(C)c1C"
parametermeasured = "IC50"
unitsymbol = "nM"
resultnumber = 25.1

[[record]]
smilesnotation = "Cc1ccc(Oc2cn(Cc3ccccc3)c(=O)c(Nc3ccc(C#N)cc3)n2)c(C)c1"
parametermeasured = "IC50"
unitsymbol = "nM"
resultnumber = 31.6

[[record]]
smilesnotation = "Cc1ccc(S(=O)(=O)c2nc(Nc3ccc(C#N)cc3)c(=O)n(C)c2C)c(C)c1"
parametermeasured = "IC50"
unitsymbol = "nM"
resultnumber = 31.6

[[record]]
smilesnotation = "Cc1cc(C)c(Sc2cn(C)c(=O)c(Nc3ccc(Cl)cc3)n2)c(C)c1"
parametermeasured = "IC50"
unitsymbol = "nM"
resultnumber = 79.4


* * *

- Tested on: HIV-1
- methodNotes: microbe, parasite or virus in culture
- Assay type: cell-based
- conditionContext: Human immunodeficiency virus 1, MT4; HIV-infected MT-4 cells, MTT, OD 540 nm; read-out: IC50 (50% inhibitory concentration, dose achieving 50% protection)
pIC50: −log10 of the molar value.
parameterMeasured: pIC50

[[record]]
smilesnotation = "Cc1ccccc1Oc1nc(Nc2ccc(Cl)cc2)c(=O)n(C)c1C"
measuredtarget = "HIV-1"
resultnumber = 7.00

[[record]]
smilesnotation = "Cc1ccc(Oc2cn(C)c(=O)c(Nc3ccccc3)n2)c(C)c1"
measuredtarget = "HIV-1"
resultnumber = 6.70

[[record]]
smilesnotation = "Cc1ccccc1Oc1nc(Nc2ccc(C#N)cc2)c(=O)n(C)c1C"
measuredtarget = "HIV-1"
resultnumber = 8.30

[[record]]
smilesnotation = "Cc1ccc(Oc2nc(Nc3ccc(Cl)cc3)c(=O)n(C)c2C)c(C)c1"
measuredtarget = "HIV-1"
resultnumber = 7.30

[[record]]
smilesnotation = "Cc1ccc(Sc2nc(Nc3ccc(Cl)cc3)c(=O)n(C)c2C)c(C)c1"
measuredtarget = "HIV-1"
resultnumber = 6.30

[[record]]
smilesnotation = "Cc1ccccc1Sc1cn(C)c(=O)c(Nc2ccc(C#N)cc2)n1"
measuredtarget = "HIV-1"
resultnumber = 7.70

[[record]]
smilesnotation = "Cc1ccc(Oc2nc(Nc3ccc(C#N)cc3)c(=O)n(C)c2C)c(C)c1"
measuredtarget = "HIV-1"
resultnumber = 8.60

[[record]]
smilesnotation = "Cc1cc(C)c(S(=O)(=O)c2nc(Nc3ccc(C#N)cc3)c(=O)n(C)c2C)c(C)c1"
measuredtarget = "HIV-1"
resultnumber = 8.30


* * *

Readings of CC50 for the listed compounds
- methodNotes: Cytotoxicity in mock-infected MT-4 cells (MTT)
- Type: cell-based
- conditionContext: human, OD 540 nm, read-out: CC50 (50% cytotoxic concentration)
parameterMeasured: CC50 (µM)

[[record]]
compound = "Cc1ccc(Oc2cn(C)c(=O)c(Nc3ccccc3)n2)c(C)c1"
resultnumber = 99.9

[[record]]
compound = "Cc1ccccc1Sc1cn(C)c(=O)c(Nc2ccc(C#N)cc2)n1"
resultnumber = 100

[[record]]
compound = "Cc1ccccc1Oc1nc(Nc2ccc(Cl)cc2)c(=O)n(C)c1C"
resultnumber = 100

[[record]]
compound = "Cc1cc(C)c([S+]([O-])c2nc(Nc3ccc(C#N)cc3)c(=O)n(C)c2C)c(C)c1 (centres unmarked)"
resultnumber = 100

[[record]]
compound = "Cc1ccccc1Oc1nc(Nc2ccc(C#N)cc2)c(=O)n(C)c1C"
resultnumber = 99.8

[[record]]
compound = "Cc1ccc(Oc2cn(C)c(=O)c(Nc3ccc(Cl)cc3)n2)c(C)c1"
resultnumber = 100

[[record]]
compound = "Cc1ccc(Oc2nc(Nc3ccc(C#N)cc3)c(=O)n(C)c2C)c(C)c1"
resultnumber = 99.5

[[record]]
compound = "Cc1ccccc1Sc1nc(Nc2ccc(C#N)cc2)c(=O)n(C)c1C"
resultnumber = 99.9


* * *

- methodNotes: Cytotoxicity in mock-infected MT-4 cells (MTT)
- Format: cell-based
- conditionContext: human, OD 540 nm, read-out: CC50 (50% cytotoxic concentration)
Readings of CC50 for the listed molecules
parameterMeasured: CC50 (µM)

[[record]]
smilesnotation = "Cc1ccc(Oc2cn(Cc3ccccc3)c(=O)c(Nc3ccc(C#N)cc3)n2)c(C)c1"
resultnumber = 99.9

[[record]]
smilesnotation = "Cc1cc(C)c(S(=O)(=O)c2nc(Nc3ccc(C#N)cc3)c(=O)n(C)c2C)c(C)c1"
resultnumber = 99.8

[[record]]
smilesnotation = "Cc1ccc(Sc2nc(Nc3ccc(Cl)cc3)c(=O)n(C)c2C)c(C)c1"
resultnumber = 100

[[record]]
smilesnotation = "Cc1ccc(S(=O)(=O)c2nc(Nc3ccc(C#N)cc3)c(=O)n(C)c2C)c(C)c1"
resultnumber = 99.9

[[record]]
smilesnotation = "Cc1ccc(Oc2cn(C)c(=O)c(Nc3ccc(C(F)(F)F)cc3)n2)c(C)c1"
resultnumber = 100

[[record]]
smilesnotation = "Cc1cc(C)c(Sc2cn(C)c(=O)c(Nc3ccc(Cl)cc3)n2)c(C)c1"
resultnumber = 99.9

[[record]]
smilesnotation = "Cc1cc(C#N)cc(C)c1Oc1nc(Nc2ccc(C#N)cc2)c(=O)n(C)c1C"
resultnumber = 99.8

[[record]]
smilesnotation = "Cc1ccc(Oc2nc(Nc3ccc(Cl)cc3)c(=O)n(C)c2C)c(C)c1"
resultnumber = 99.9


Origin of values: patent US7105522B2
